STUDY SYSTEM: 5-HT2B (Homo sapiens)
Construct: expressed in transfected cells; host or cells: HEK293T (ATCC; RRID:CVCL_0063), transient transfection
Sequence (P41595 whole entry): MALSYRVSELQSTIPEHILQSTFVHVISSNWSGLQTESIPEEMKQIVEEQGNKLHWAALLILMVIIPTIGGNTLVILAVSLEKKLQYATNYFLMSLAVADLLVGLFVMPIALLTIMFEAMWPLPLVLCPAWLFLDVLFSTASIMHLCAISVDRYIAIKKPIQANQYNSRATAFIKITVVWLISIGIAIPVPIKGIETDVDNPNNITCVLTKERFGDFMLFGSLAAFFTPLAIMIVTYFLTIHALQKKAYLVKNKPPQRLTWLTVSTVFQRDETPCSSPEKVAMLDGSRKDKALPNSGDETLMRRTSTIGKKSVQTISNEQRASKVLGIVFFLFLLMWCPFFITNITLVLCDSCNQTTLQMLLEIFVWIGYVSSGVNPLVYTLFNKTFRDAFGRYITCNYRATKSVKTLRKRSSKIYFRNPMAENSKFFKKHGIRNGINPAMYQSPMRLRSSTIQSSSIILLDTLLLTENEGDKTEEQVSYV
ASSAY NOTES: Gq dissociation BRET assay in HEK293T cells
Assay type: cell-based
TEST PARAMETERS: pEC50 ± SEM 5-HT2B, Gq dissociation BRET
EXPERIMENTAL ENDPOINT: EC50 (nM)
Output spec: scalar in nM, unitless text.

The compound CNC(C)Cc1ccc2c(c1)OCO2 (stereo not shown) [MDMA, 3,4-Methylenedioxymethamphetamine, reference compound] showed EC50 equal to 525

* * *

STUDY SYSTEM: SERT (Homo sapiens, UniProt P31645)
Sequence (P31645 whole entry, the tested form may be a part): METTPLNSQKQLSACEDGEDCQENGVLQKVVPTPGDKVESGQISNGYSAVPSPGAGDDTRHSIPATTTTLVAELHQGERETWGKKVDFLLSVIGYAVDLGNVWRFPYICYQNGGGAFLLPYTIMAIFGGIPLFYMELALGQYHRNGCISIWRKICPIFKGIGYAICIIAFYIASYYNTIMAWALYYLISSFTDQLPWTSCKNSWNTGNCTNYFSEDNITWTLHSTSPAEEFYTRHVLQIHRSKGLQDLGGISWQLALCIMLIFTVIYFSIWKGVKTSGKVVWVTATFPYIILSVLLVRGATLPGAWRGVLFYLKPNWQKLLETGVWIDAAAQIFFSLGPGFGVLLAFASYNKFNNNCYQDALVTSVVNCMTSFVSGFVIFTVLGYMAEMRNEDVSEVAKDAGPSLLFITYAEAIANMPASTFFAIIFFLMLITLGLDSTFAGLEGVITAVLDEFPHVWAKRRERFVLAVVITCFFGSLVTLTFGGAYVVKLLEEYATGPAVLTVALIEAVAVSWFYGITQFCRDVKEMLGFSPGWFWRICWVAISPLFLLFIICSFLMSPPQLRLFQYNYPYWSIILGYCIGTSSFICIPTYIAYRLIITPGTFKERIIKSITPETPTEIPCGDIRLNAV
ASSAY NOTES: Uptake inhibition assay, [3H]5-HT uptake in HEK293 cells
EXPERIMENTAL ENDPOINT: IC50 (µM)
Kindly provide the numeric value in µM only, without the unit symbol.

Query CNC(C)Cc1ccc2c(c1)OCO2 (stereo not shown) [MDMA, 3,4-Methylenedioxymethamphetamine, reference compound] yields IC50 of 6.47

Field IC50 (entry CC(N)Cc1ccc2c(c1)OCO2 (stereo not shown) [MDA, 3,4-Methylenedioxyamphetamine, reference compound] ) reads 22.9

Entry CNC(C)Cc1ccc2c(c1)SCO2 (stereo not shown) [SDMA] ; IC50 = 4

# IC50 of CC(N)Cc1ccc2c(c1)SCO2 (stereo not shown) [SDA, 1-(1,3-benzoxathiol-5-yl)propan-2-amine] = 3.09

* * *

STUDY SYSTEM: NET (Homo sapiens)
Sequence (P23975 whole entry, the tested form may be a part): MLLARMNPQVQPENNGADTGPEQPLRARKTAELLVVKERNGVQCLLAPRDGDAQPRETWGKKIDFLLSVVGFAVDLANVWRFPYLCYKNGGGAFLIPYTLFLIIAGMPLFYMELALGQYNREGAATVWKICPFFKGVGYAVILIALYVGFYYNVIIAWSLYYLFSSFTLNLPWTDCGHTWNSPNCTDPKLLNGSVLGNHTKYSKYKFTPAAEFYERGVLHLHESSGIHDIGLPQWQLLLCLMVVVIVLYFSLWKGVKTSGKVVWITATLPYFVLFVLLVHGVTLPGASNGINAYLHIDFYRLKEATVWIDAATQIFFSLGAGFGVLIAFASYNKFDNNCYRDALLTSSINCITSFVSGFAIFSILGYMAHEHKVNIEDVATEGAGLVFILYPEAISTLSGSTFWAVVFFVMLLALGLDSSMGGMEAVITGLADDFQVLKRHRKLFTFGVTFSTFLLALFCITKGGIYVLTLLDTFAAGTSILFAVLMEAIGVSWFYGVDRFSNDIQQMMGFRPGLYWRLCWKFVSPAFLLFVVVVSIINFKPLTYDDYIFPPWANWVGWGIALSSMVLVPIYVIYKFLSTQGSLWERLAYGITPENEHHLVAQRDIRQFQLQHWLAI
ASSAY NOTES: Release (superfusion) assay, NET mediated [3H]MPP+ release
EXPERIMENTAL ENDPOINT: pEC50
Hey, just a heads up that pEC50 is the negative log base 10 of the concentration in molar.

Examples with their reported pEC50 follow.
MOLECULE	EXPERIMENTAL ENDPOINT	OBSERVED VALUE
CNC(C)Cc1ccc2c(c1)OCO2 (stereo not shown) [MDMA, 3,4-Methylenedioxymethamphetamine, reference compound]	pEC50	6.14
CNC(C)Cc1ccc2c(c1)SCO2 (stereo not shown)	pEC50	6.44
CC(N)Cc1ccc2c(c1)OCO2 (stereo not shown) [MDA, 3,4-Methylenedioxyamphetamine, reference compound]	pEC50	6.46

Continue with the next molecule.
// sample CC(N)Cc1ccc2c(c1)SCO2 (stereo not shown) , its pEC50 was 6.82

* * *

Measured EC50 accompanies every entry in the list below.
STUDY SYSTEM: 5-HT2B (Homo sapiens)
Construct: expressed in transfected cells; host or cells: HEK293T (ATCC; RRID:CVCL_0063), transient transfection
ASSAY NOTES: Gq dissociation BRET assay in HEK293T cells
Format: cell-based
TEST PARAMETERS: EC50 5-HT2B, Gq dissociation BRET
Only the number, expressed in µM, is required.

COMPOUND	EC50 / µM
CNC(C)Cc1ccc2c(c1)OCO2 (centres unmarked) [MDMA, 3,4-Methylenedioxymethamphetamine, reference compound]	0.531

Field EC50 (entry CC(N)Cc1ccc2c(c1)OCO2 (centres unmarked) [MDA, 3,4-Methylenedioxyamphetamine, reference compound] ) reads 0.139

* * *

STUDY SYSTEM: DAT (Homo sapiens)
Sequence (Q01959 whole entry): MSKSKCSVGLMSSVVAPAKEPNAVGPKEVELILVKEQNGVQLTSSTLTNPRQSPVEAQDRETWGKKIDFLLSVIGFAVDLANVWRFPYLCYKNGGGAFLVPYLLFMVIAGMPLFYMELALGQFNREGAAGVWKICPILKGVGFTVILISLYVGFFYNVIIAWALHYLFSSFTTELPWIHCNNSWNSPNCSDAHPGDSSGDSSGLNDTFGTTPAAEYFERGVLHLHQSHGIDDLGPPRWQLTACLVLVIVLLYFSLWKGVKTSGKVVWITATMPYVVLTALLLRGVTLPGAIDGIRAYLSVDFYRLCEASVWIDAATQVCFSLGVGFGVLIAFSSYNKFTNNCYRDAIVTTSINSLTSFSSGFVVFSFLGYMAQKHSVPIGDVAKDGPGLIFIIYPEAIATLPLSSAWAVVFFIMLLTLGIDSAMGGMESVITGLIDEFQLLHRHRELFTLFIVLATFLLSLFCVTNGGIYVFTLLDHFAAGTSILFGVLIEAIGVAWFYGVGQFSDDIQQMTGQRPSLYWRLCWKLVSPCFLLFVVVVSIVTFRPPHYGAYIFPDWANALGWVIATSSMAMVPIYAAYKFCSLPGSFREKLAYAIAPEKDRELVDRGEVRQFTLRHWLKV
ASSAY NOTES: cell-based
TEST PARAMETERS: read-out: Emax [95%-CI], DAT mediated [3H]MPP+ release
EXPERIMENTAL ENDPOINT: Emax
The reply should consist of the numeric value with the unit placed after it.

These solved cases illustrate the format of a correct answer.
COMPOUND	OBSERVED VALUE
CNC(C)Cc1ccc2c(c1)SCO2 (stereo not shown)	35.4%
CC(N)Cc1ccc2c(c1)SCO2 (stereo not shown)	55.4%
CNC(C)Cc1ccc2c(c1)OCO2 (stereo not shown) [MDMA, 3,4-Methylenedioxymethamphetamine, reference compound]	43.1%

So, CC(N)Cc1ccc2c(c1)OCO2 (stereo not shown) [MDA, 3,4-Methylenedioxyamphetamine, reference compound] ? Its Emax was 67.2%

* * *

STUDY SYSTEM: 5-HT2A (Homo sapiens, UniProt P28223)
Construct: expressed in transfected cells; host or cells: HEK293T (ATCC; RRID:CVCL_0063), transient transfection
Sequence (P28223 whole entry): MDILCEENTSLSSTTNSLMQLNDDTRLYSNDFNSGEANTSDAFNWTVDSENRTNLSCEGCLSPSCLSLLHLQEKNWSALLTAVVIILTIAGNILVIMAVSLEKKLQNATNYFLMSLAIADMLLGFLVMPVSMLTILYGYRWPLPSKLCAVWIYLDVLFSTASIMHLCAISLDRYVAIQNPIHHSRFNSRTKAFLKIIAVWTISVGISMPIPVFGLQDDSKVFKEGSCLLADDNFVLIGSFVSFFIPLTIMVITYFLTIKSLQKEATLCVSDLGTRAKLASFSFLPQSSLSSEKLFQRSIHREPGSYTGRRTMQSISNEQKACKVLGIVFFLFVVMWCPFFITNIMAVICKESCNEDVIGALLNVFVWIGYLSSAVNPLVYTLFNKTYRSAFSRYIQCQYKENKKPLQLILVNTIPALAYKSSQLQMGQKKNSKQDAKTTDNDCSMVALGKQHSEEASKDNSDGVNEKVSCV
ASSAY NOTES: Gq dissociation BRET assay in HEK293T cells
Type: cell-based
TEST PARAMETERS: pEC50 ± SEM 5-HT2A, Gq dissociation BRET
EXPERIMENTAL ENDPOINT: pEC50
Please keep in mind that pEC50 is minus log10 of the molar concentration; only the number is needed.

Quick note, pEC50 for CNC(C)Cc1ccc2c(c1)OCO2 (stereo not shown) [MDMA, 3,4-Methylenedioxymethamphetamine, reference compound] landed at 5.51

* * *

Items are presented alongside their recorded pIC50.
STUDY SYSTEM: UniProtKB O15245
Sequence (O15245 whole entry): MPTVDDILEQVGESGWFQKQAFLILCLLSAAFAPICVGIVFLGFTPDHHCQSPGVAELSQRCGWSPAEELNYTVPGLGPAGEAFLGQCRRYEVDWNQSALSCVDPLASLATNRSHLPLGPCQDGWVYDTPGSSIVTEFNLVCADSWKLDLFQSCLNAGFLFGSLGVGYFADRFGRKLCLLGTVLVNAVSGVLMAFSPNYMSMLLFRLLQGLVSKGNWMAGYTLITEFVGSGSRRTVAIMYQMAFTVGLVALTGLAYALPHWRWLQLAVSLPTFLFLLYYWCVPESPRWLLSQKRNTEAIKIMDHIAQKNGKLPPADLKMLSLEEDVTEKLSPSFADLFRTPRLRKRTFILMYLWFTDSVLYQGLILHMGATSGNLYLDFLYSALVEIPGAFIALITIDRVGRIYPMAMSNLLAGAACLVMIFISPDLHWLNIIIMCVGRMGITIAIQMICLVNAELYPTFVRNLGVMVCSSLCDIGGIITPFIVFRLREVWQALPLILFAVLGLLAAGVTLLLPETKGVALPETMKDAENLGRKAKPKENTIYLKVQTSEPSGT
ASSAY NOTES: Uptake inhibition assay, [3H]MPP+ uptake in HEK293 cells
Would you please state pIC50, meaning minus log10 of the concentration in mol/L, as a bare number?

Solved cases below.
COMPOUND	pIC50
CNC(C)Cc1ccc2c(c1)OCO2 (stereo not shown) [MDMA, 3,4-Methylenedioxymethamphetamine, reference compound]	5.29
CC(N)Cc1ccc2c(c1)SCO2 (stereo not shown) [SDA, 1-(1,3-benzoxathiol-5-yl)propan-2-amine]	5.44
CNC(C)Cc1ccc2c(c1)SCO2 (stereo not shown) [SDMA]	5.36

Now take the following compound into account.
Noted for CC(N)Cc1ccc2c(c1)OCO2 (stereo not shown) [MDA, 3,4-Methylenedioxyamphetamine, reference compound] : its pIC50 reads 5.16

* * *

The reader will find reported pEC50 values listed item by item below.
STUDY SYSTEM: 5-HT2A (Homo sapiens)
Construct: expressed in transfected cells; host or cells: HEK293T (ATCC; RRID:CVCL_0063), transient transfection
ASSAY NOTES: Gq dissociation BRET assay in HEK293T cells
Format: cell-based
TEST PARAMETERS: EC50 5-HT2A, Gq dissociation BRET
Quick note: pEC50 values are minus log10 of concentrations in mol/L.

COMPOUND	pEC50
CNC(C)Cc1ccc2c(c1)OCO2 (centres unmarked) [MDMA, 3,4-Methylenedioxymethamphetamine, reference compound]	5.50

Pending compound:
The measured pEC50 associated with CC(N)Cc1ccc2c(c1)OCO2 (centres unmarked) [MDA, 3,4-Methylenedioxyamphetamine, reference compound] reads 6.04

* * *

STUDY SYSTEM: SERT (Homo sapiens)
ASSAY NOTES: Release (superfusion) assay, SERT mediated [3H]5-HT efflux
EXPERIMENTAL ENDPOINT: EC50 (nM)
I only need the number, in nM, no unit after it.

COMPOUND	OBSERVED VALUE
CC(N)Cc1ccc2c(c1)OCO2 (stereo not shown) [MDA, 3,4-Methylenedioxyamphetamine, reference compound]	4350

The compound CNC(C)Cc1ccc2c(c1)SCO2 (stereo not shown) , tested on SERT (Homo sapiens), showed EC50 of 180

CNC(C)Cc1ccc2c(c1)OCO2 (stereo not shown) [MDMA, 3,4-Methylenedioxymethamphetamine, reference compound] tested on SERT (Homo sapiens) gave EC50: 1950

# value of EC50, SERT (Homo sapiens), item CC(N)Cc1ccc2c(c1)SCO2 (stereo not shown) = 270

Source listed as paper PMC12715756.
